Every entry's value here was drawn from patent EP4692090A1.

Each entry below carries its reported IC50.
TARGET ENTITY: ATR kinase (Homo sapiens)
Construct: purchased Eurofins 14-953
Sequence (Q13535 whole entry): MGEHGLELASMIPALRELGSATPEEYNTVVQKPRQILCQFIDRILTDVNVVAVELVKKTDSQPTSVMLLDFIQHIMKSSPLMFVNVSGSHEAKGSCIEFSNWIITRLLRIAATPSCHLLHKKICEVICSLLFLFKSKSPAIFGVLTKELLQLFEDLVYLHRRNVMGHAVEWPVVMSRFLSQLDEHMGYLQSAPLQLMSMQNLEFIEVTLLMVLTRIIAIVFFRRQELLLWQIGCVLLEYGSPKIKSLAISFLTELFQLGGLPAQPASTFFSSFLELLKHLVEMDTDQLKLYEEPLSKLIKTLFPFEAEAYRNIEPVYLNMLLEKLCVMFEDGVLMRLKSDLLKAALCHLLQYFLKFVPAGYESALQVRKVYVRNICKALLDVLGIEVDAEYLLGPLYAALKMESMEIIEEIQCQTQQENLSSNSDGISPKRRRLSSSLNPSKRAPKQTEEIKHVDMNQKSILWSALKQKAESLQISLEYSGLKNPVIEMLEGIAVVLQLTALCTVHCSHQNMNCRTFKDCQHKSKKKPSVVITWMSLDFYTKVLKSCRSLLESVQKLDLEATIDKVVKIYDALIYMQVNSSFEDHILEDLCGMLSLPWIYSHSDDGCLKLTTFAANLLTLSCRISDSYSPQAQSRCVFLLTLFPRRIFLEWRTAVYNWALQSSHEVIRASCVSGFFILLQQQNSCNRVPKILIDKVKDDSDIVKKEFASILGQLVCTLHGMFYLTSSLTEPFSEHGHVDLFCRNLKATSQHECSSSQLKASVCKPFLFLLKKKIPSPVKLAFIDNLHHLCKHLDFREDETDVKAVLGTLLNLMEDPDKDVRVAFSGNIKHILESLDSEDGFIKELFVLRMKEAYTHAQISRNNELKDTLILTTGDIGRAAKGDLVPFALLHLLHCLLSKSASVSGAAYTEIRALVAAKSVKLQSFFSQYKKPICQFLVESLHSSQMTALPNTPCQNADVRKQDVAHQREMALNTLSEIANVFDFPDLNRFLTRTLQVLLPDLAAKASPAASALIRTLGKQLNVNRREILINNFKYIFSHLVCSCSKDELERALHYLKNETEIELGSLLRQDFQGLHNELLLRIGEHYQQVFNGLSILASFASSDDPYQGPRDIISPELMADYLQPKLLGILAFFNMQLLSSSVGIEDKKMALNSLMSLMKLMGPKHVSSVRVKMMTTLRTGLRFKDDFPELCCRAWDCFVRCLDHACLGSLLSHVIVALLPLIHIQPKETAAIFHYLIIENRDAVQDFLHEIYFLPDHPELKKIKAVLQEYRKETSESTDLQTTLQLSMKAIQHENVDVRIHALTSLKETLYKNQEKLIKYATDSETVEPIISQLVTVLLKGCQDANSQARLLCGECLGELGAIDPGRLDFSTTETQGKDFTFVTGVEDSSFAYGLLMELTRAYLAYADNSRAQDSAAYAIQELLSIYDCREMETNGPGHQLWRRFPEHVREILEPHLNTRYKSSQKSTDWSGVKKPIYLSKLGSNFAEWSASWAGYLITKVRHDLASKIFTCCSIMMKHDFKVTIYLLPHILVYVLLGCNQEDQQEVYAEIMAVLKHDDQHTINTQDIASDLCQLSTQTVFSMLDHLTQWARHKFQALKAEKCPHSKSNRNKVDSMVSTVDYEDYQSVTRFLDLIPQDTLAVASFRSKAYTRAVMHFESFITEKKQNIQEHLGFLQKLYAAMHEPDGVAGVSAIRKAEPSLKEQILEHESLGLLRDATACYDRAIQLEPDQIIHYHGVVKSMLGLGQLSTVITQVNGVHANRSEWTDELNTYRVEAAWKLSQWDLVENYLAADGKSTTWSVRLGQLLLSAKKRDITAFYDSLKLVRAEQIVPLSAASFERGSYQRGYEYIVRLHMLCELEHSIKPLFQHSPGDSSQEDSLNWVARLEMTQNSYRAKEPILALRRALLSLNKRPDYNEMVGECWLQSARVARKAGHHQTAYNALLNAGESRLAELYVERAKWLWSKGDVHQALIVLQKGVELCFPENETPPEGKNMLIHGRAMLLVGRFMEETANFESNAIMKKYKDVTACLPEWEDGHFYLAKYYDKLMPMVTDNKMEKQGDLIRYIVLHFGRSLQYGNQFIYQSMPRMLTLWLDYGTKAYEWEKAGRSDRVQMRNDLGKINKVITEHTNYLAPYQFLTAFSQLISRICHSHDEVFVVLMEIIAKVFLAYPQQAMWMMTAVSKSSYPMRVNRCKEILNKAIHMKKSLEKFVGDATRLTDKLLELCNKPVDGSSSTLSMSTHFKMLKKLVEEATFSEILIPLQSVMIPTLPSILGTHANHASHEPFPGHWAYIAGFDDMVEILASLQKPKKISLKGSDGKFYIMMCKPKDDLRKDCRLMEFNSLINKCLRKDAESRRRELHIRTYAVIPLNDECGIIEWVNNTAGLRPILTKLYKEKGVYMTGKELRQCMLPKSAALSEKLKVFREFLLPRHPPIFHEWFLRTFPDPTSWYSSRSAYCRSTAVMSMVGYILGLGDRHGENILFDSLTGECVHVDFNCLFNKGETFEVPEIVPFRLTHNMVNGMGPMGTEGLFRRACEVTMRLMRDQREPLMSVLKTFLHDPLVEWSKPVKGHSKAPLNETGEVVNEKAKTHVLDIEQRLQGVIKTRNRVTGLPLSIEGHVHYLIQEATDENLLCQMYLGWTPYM
Sequence (Q8WXE1 whole entry partner): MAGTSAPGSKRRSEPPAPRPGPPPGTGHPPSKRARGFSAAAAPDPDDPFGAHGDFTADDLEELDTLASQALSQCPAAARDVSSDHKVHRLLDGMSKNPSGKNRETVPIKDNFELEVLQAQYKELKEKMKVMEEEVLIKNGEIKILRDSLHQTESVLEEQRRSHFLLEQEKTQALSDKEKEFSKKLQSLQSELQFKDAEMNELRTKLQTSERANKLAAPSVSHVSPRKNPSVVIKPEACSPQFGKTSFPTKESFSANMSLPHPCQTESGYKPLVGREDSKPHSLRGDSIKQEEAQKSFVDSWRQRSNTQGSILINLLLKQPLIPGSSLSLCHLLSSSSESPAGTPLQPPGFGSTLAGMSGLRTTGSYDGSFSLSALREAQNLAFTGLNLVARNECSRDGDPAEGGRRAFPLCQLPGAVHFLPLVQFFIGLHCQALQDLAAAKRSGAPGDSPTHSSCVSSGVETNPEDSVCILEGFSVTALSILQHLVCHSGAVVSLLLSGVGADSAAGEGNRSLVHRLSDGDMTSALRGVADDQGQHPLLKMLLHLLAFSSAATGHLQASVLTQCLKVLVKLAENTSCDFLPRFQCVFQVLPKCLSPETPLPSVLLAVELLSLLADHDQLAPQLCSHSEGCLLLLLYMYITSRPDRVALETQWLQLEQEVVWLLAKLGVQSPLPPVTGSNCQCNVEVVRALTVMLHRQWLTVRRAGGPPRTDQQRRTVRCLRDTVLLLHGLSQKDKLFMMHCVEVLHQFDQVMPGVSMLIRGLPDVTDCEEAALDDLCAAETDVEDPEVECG
ASSAY METHOD TEXT: Inhibitory effect on ATR kinase activity (Caliper mobility shift, FAM-labeled RAD17 peptide substrate)
Format: biochemical
ASSAY CONDITIONS: 1 nM ATR kinase (Eurofins), 28°C for 3 hours, maximum concentration 1 µM, 10 concentrations, read-out: ATR kinase IC50

# annotated cases, reported IC50 shown
MOLECULE | IC50
CC1c2cc(N3CCOC[C@H]3C)nc3c2c(nn3-c2cc[nH]n2)CCN1C (single isomer, unassigned) [Compound 35A] | < 10 nM
CC(C)N1CCCn2nc(-c3cc[nH]n3)c3nc(N4CCOC[C@H]4C)cc1c32 | 10 to 100 nM
[2H]C([2H])([2H])N1CCc2nn(-c3cc[nH]n3)c3nc(N4CCOC[C@H]4C)cc(c23)C1C (single isomer, unassigned) [Compound 47B] | < 10 nM
CC1c2cc(N3CCOC[C@H]3C)nc3c2c(nn3-c2cc[nH]n2)CCN1S(=O)(=O)C1CC1F (single isomer, unassigned) [Compound 151D] | 100 to 1000 nM
CC1c2cc(N3CCOC[C@H]3C)nc3c2c(nn3-c2cc[nH]n2)CCN1C1(C#N)CC1 (single isomer, unassigned) [Compound 42B] | 10 to 100 nM
CC(C)C1c2cc(N3CCOC[C@H]3C)nc3c2c(nn3-c2cc[nH]n2)CCN1C (single isomer, unassigned) [Compound 141B] | < 10 nM

Now look at this entry.
Query :: Which IC50 is listed for C=CS(=O)(=O)N1CCc2nn(-c3cc[nH]n3)c3nc(N4CCOC[C@H]4C)cc(c23)C1C (stereo partly shown) ?
Result :: < 10 nM

----------
TARGET ENTITY: ATR kinase (Homo sapiens)
Construct: purchased Eurofins 14-953
ASSAY METHOD TEXT: Inhibitory effect on ATR kinase activity (Caliper mobility shift, FAM-labeled RAD17 peptide substrate)
Format: biochemical
ASSAY CONDITIONS: 1 nM ATR kinase (Eurofins), 28°C for 3 hours, maximum concentration 1 µM, 10 concentrations, read-out: ATR kinase IC50
TEST READOUT: IC50

COMPOUND | IC50
C[C@@H]1COCCN1c1cc2c3c(nn(-c4cc[nH]n4)c3n1)CCN(S(C)(=O)=O)C2C1CC1 (single isomer, unassigned) [Compound 138A] | < 10 nM
C[C@@H]1COCCN1c1cc2c3c(nn(-c4cc[nH]n4)c3n1)CCC(=O)N2C1(C)CC1 | < 10 nM
C[C@@H]1COCCN1c1cc2c3c(n1)c(-c1cc[nH]n1)nn3CCN2 | 1000 to 2500 nM

Query :: Query: IC50; subject: CC1c2cc(N3CCOC[C@H]3C)nc3c2c(nn3-c2cc[nH]n2)CCN1C1CC1 (single isomer, unassigned) [Compound 31B]
Result :: < 10 nM

Query :: Consider the compound shown here: CC(C)C1(O)CCn2nc(-c3cc[nH]n3)c3nc(N4CCOC[C@H]4C)cc1c32 (single isomer, unassigned) [Compound 72B] What is its recorded IC50?
Result :: 100 to 1000 nM

Query :: Entry CC1CC(C(=O)N2CCc3nn(-c4cc[nH]n4)c4nc(N5CCOC[C@H]5C)cc(c34)C2)C1 (stereo partly drawn) : reported IC50 = ?
Result :: 10 to 100 nM

Query :: IC50 for C[C@@H]1COCCN1c1cc2c3c(nn(-c4cc[nH]n4)c3n1)CCN(C)C2C1CC1 (single isomer, unassigned) [Compound 142A] ?
Result :: < 10 nM

Query :: Using the record for C[C@@H]1COCCN1c1cc2c3c(nn(-c4cc[nH]n4)c3n1)CCN(C(=O)C1CC(F)(F)C1)C2 , report its IC50.
Result :: 10 to 100 nM

Query :: Quick one: IC50 of CCN1CCc2nn(-c3cc[nH]n3)c3nc(N4CCOC[C@H]4C)cc(c23)C1C (single isomer, unassigned) [Compound 41A] ?
Result :: < 10 nM

Query :: Which IC50 is listed for CC1c2cc(N3CCOC[C@H]3C)nc3c2c(nn3-c2cc[nH]n2)CCN1S(=O)(=O)C1(C)CC1 (single isomer, unassigned) [Compound 49B] ?
Result :: 10 to 100 nM

Query :: What does the record list as IC50 for C[C@@H]1COCCN1c1cc2c3c(n1)c(-c1cc[nH]n1)nn3CCC(=O)N2C1CC2(CCC2)C1 ?
Result :: 10 to 100 nM

Query :: So what does the record say about IC50 for CCC1c2cc(N3CCOC[C@H]3C)nc3c2c(nn3-c2cc[nH]n2)CCN1S(C)(=O)=O (single isomer, unassigned) [Compound 144A] ?
Result :: < 10 nM

Query :: Endpoint output: IC50 of C[C@@H]1COCCN1c1cc2c3c(n1)c(-c1cc[nH]n1)nn3CCN2C . Value?
Result :: 1000 to 2500 nM

Query :: Fill in: IC50 of CC(C)N1CCc2nn(-c3cc[nH]n3)c3nc(N4CCOC[C@H]4C)cc(c23)C1C (single isomer, unassigned) [Compound 36A] is ___
Result :: < 10 nM
